Molecular target: Tyrosyl-tRNA synthetase, putative (Trypanosoma cruzi (strain CL Brener)) (UniProt Q4DSP6)
Sequence (Q4DSP6 as listed by the source): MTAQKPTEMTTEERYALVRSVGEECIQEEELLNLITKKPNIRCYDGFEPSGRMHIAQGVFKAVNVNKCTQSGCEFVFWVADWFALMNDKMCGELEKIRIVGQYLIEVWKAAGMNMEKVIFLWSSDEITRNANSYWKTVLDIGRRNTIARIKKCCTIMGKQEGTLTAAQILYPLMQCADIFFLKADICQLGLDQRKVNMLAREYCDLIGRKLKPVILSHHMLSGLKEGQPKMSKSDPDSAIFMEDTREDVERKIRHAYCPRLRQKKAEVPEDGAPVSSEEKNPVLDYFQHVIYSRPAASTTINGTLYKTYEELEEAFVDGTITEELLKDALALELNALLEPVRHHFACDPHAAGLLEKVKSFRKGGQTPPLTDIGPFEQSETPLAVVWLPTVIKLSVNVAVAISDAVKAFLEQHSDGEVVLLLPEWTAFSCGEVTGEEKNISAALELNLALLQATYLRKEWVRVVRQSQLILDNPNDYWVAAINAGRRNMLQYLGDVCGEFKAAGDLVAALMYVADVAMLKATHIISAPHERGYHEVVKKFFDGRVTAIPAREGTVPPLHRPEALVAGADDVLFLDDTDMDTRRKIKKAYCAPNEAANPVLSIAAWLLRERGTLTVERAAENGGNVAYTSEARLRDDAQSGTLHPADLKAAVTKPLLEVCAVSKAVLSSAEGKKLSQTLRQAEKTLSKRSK
Assay: Trypanosoma cruzi tyrosyl tRNA synthetase (TcYRS) _High Tyrosine SOP; also: in the data most compounds retested in dose-response had high values
Format: functional
Set-up: scale not given: direction of the effect not stated beside the values
Conditions: 30 µM
ASSAY METRIC: Percent Effect (%)
Form entry: value (%) — number only.

Determine from records and report Percent Effect for O=C(Cc1ccccn1)N1CCN2C[C@H](Oc3cccc(F)c3)C[C@H]2C1 -2.16

Return value of Percent Effect for input Cc1nc(CN2C[C@@H]3OCCN(c4ncc(F)cn4)[C@@H]3C2)cs1 , no commentary. 4.17

Identify the reported Percent Effect for the following entry. CCN1CCC2(COCc3cnc(-c4cccnc4)nc32)C1 (stereo not given) 3.24

Tell me measured Percent Effect for COc1ccccc1OCC(=O)N1CCN(Cc2noc(C)n2)CC1 please. 4.3

Consider now this further compound.
Read the entry Cc1cc(N2CCN3CCCCC3C2)n2nc(C)c(C)c2n1 (stereo not given) and write its reported Percent Effect. 4.21

* * *

Molecular target: Aspartate--tRNA(Asp/Asn) ligase (Mycobacterium tuberculosis (strain ATCC 25618 / H37Rv)) (UniProt P9WFW3); also: in the data most compounds retested in dose-response had high values
Assay: Assay for Asp RNA synthetase-1 from Mycobacterium tuberculosis
Format: functional
Set-up: scale not given: direction of the effect not stated beside the values
Conditions: 30 µM
ASSAY METRIC: Percent Effect (%)
Number in %, nothing else.

In one line, give reported Percent Effect of the entry CCc1noc(C(C)N2CCNCC2)n1 (stereo not given) . -11.9

Identify measured Percent Effect associated with Cc1noc(C)c1C(=O)N1CC[C@H]2C[C@@H](c3nccs3)O[C@@H]2C1 3.92

Supply recorded Percent Effect for c1cnc(NCc2ncn3c2CN(Cc2cccnc2)CCC3)nc1 here. -2.66

Annotate the molecule CC(C)C(Sc1nnnn1C1CC1)C(=O)NCc1cccnc1 (stereo not given) with its measured Percent Effect. -3.1

Indicate its recorded Percent Effect; the molecule in question is CS(=O)(=O)N1Cc2ccccc2C2(CCN(C(=O)c3ccno3)CC2)C1 1.46

Further cases:
Give the value of Percent Effect reported for the following: c1cc2c(cc1C1CCCN1Cc1nnnn1C1CC1)OCCO2 (stereo not given) -1.25

Give reported Percent Effect value for NC(=O)c1nnn(-c2ccc(Br)cc2)n1 3.66

Query Percent Effect for COCC1CN(Cc2ccc(C)o2)Cc2cn(C)nc21 (stereo not given) 11.7

Provide one value: measured Percent Effect of O=C(c1ccnnc1)N1C[C@@H]2CC[C@H](Oc3cccc(F)c3)[C@@H]2C1 3.77

Given Fc1ccc(CN2CCCC2Cn2cccn2)c2ncccc12 (stereo not given) , respond with its Percent Effect. -2.13

Tell me Percent Effect reported for Cc1cccc(COC[C@]23COC[C@H]2CN(C(=O)c2ccsc2)C3)n1 1.56

Fill in reported Percent Effect for this entry: CC(C)c1nc(C2CCCN(Cc3nnc(C4CC4)o3)C2)no1 (stereo not given) -2.16

In one line, give reported Percent Effect of the entry COc1ccc(CN2C[C@H](OCC3CCOCC3)[C@H]3COC[C@H]32)cc1 . -1.6

Could you please provide reported Percent Effect for CCOc1ccnc(N2CCN(C(=O)c3cc(Cl)c[nH]3)CC2)n1 ? Thanks! -2.48

Annotate the molecule CN(Cc1ccco1)C[C@H]1OC[C@@H]2CCN(Cc3nccs3)C[C@@H]21 with its measured Percent Effect. 4.31

* * *

Target: Aspartate--tRNA(Asp/Asn) ligase (Mycobacterium tuberculosis (strain ATCC 25618 / H37Rv)); also: in the data most compounds retested in dose-response had high values
Sequence (whole entry): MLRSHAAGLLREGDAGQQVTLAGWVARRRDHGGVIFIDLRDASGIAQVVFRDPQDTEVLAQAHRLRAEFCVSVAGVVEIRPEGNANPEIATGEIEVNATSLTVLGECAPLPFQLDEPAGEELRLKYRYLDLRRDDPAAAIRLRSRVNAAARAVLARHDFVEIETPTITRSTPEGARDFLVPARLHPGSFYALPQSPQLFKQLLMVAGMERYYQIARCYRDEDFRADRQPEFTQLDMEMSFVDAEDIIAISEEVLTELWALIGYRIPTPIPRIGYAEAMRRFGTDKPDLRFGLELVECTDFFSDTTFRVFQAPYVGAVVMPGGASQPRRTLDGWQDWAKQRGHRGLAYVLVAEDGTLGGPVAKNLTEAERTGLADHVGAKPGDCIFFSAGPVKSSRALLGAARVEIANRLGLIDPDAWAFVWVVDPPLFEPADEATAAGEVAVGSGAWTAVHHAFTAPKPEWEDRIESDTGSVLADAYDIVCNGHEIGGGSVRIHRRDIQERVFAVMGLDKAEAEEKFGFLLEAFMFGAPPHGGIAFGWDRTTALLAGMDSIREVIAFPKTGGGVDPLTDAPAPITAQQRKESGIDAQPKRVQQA
Test: Assay for Asp RNA synthetase-1 from Mycobacterium tuberculosis
Assay type: functional
Set-up: scale not given: direction of the effect not stated beside the values
Settings: 30 µM
ASSAY METRIC: Percent Effect (%)
Supply the numeric figure in %, leaving out any unit text.

Worked cases, Percent Effect given:
Complete the entry with Percent Effect for COc1ccc(C(O)CNc2c(C#N)c(=O)n(C)c(=O)n2C)cc1 (configuration not stated) -3.91

Given Cc1ccc(C)c(NC(=O)Nc2c[nH]c(=O)[nH]c2=O)c1 , respond with its Percent Effect. -1.44

Provide only the value of recorded Percent Effect for COc1ccc(OC)c(CCNC(=O)NC(C)Cn2ccnc2)c1 (configuration not stated) -6.68

For the molecule CCOc1ncccc1C(=O)N1CCCC(c2nccn2CCOC)C1 (configuration not stated) , give its measured Percent Effect value. -4.25

State its Percent Effect for this molecule: CC(=O)N1CCC2(CCN(C(=O)c3ccc(C)c(C(F)(F)F)c3)CC2)C1 17.3

Next:
Query Percent Effect for CC(=O)N1CCCN(Cc2csc(-c3ncccn3)n2)CC1 5.15

Indicate the recorded Percent Effect value for this molecule: CS(=O)(=O)c1ccc(C(O)CN2CCC(c3ccn[nH]3)CC2)cc1 (configuration not stated) -7.22

Retrieve Percent Effect measured for Cc1nccnc1N1CC[C@@H](NC(=O)c2cnccn2)[C@H](O)C1 and print it. 3.96

Identify Percent Effect associated with the molecule Cc1nc(N)cc(C2CN(C(=O)c3ccn(C)n3)CCO2)n1 (configuration not stated) -1.09

Output measured Percent Effect for this item: CCn1cc(NC(=O)NCC(O)CN2CCCCC2)cn1 (configuration not stated) -0.173

Give a short answer stating reported Percent Effect for CCOc1ccccc1C(CC(=O)Nc1ccc(C)cn1)NC(C)=O (configuration not stated) . -0.122

* * *

Target: AMP-activated protein kinase, AMPK (Homo sapiens) (UniProt P54646+O43741+P54619+Q9UGJ0+Q9Y478+Q13131+Q9UGI9)
Assay: AMP-dependent Kinase enzyme assay. An in vitro enzyme assay that detects ADP turnover that is directly proportional to AMPK activity. This uses naive AMPK that is activated during the assay with MK-8722
Format: functional
Parameters: scale not given: direction of the effect not stated beside the values
Conditions: 30 µM
ASSAY METRIC: Percent Effect (%)
Give just the number in %; leave the unit off.

Recorded results for 9 compounds are shown here.
For CCN1CCC2(CC1)CC(Nc1ncccn1)CO2 (stereo not given) , write its Percent Effect. -2.57

State its Percent Effect: CCOCCC(=O)N1C[C@H]2CC[C@@H]1CN(Cc1ccncc1)C2 3.36

Quote Percent Effect reported for CO[C@H]1CCN(Cc2ccccn2)[C@@H]2CN(Cc3ccco3)C[C@H]12 please. 0.435

Look up and state reported Percent Effect for CNCCc1nc2cc(Cl)ccc2[nH]1 1.26

Note Percent Effect for the compound shown: COc1cccc(CNC(C)Cn2cccn2)c1OC (stereo not given) 1.22

Supply reported Percent Effect belonging to this compound: CCS(=O)(=O)N[C@@H]1CN(Cc2cc(C)on2)C[C@@H]2CCCO[C@@H]21 0.656

Return Percent Effect for the following compound: Cc1cccc(CO[C@@H]2CC[C@H]3[C@H]2OCCN3Cc2ccsc2)n1 -3.76

Give the value of Percent Effect reported for the following: O=C(c1cscn1)N1CCN2C[C@H](OCc3cccnc3)C[C@H]2C1 2.68

Return Percent Effect for the following compound: Cc1cc(Cl)ccc1C(=O)C1CCCN(Cc2cnc(N(C)C)s2)C1 (stereo not given) 3.99

As a next step, examine the compound that follows.
Return Percent Effect (reported value) for this compound: Cc1ccc(NC(=O)CNC(C)Cc2ccsc2)cc1F (stereo not given) -6.2

* * *

// reported Percent Effect per item
Target: Aspartate--tRNA(Asp/Asn) ligase (Mycobacterium tuberculosis (strain ATCC 25618 / H37Rv)) (UniProt P9WFW3); also: in the data most compounds retested in dose-response had high values
Experiment: Assay for Asp RNA synthetase-1 from Mycobacterium tuberculosis
Format: functional
Set-up: scale not given: direction of the effect not stated beside the values
Settings: 30 µM
Lab book: enter the figure in %, no units written.

Take a look at these entries with their results.
Read the entry Cc1cnc(CN2CCC(N(C)Cc3nnc(C4CC4)n3C)C2)cn1 (stereo not given) and write its reported Percent Effect. 5.06

Input c1ccc(-c2nc(CN3CCCC(Cn4cncn4)C3)no2)cc1 (stereo not given) , output reported Percent Effect. -9.3

Please give measured Percent Effect of the following entry: O=C(NCCC1CCCO1)c1ccccc1N1CCOCC1 (stereo not given) -8.37

Continuing:
Tell us which Percent Effect value is on record for COc1ncccc1C(=O)N1CC[C@H]2C[C@@H](C)O[C@@H]2C1 -1.34

Give reported Percent Effect value for CC(C)NC(=O)N1CCc2ncc(CN3CCOCC3)n2CC1 3.1

Retrieve Percent Effect measured for O=C(c1ccncc1F)N1CCc2ncnc(-c3ccncc3)c2CC1 and print it. 3.59

Consider the compound CCC(CNC(=O)c1ccc(Br)o1)N1CCc2ccccc2C1 (stereo not given) and give its recorded Percent Effect. 1.73

Indicate the recorded Percent Effect value for this compound: Cc1cccc(NC2CCN(C(=O)Nc3cccc4[nH]ccc34)CC2)n1 -0.4

Using the record for c1cncc(N2CCCC3(CN(Cc4cccs4)CCO3)C2)c1 (stereo not given) , state its measured Percent Effect. 1.48

Let me know recorded Percent Effect for c1ccc(CN2CC[C@H]3CO[C@H](CNc4ncccn4)[C@H]3C2)nc1 , thanks. -3.84

Provide one value: measured Percent Effect of CCn1ncc2c1C(COCC1CC1)CN(C(=O)c1cccs1)C2 (stereo not given) -1.73

Name the recorded Percent Effect of the compound listed here: CC[C@H](N)Cn1nc(-c2cccs2)oc1=O 7.37

State its Percent Effect: CNC(=O)CCc1cc(C)nc(C2CCCN2)c1 (stereo not given) 0.0149

Let me know recorded Percent Effect for O=C(c1cc(Cl)c2c(c1)OCCO2)N1CCCC(n2cncn2)C1 (stereo not given) , thanks. -7.78

Tell me measured Percent Effect for COCCC(=O)N1CCN(C)c2ncccc2C1 please. 4.52

Identify measured Percent Effect associated with CC(C(=O)NCc1ccnc(Oc2ccc(F)cc2)c1)n1cncn1 (stereo not given) -5.88

State its Percent Effect for this compound: CCCNC(=O)CCNC(=O)Cc1nc(-c2ccco2)oc1C 2.08

State its Percent Effect: O=C(NCc1ccco1)[C@H]1C[C@H]2OCC[C@H]2N(C(=O)c2ccncc2)C1 4.89

Please list Percent Effect recorded for the compound CCn1nnc2c1C(COC)CN(C(=O)COc1ccccc1)C2 (stereo not given) -1.42

Kindly indicate its recorded Percent Effect. Item: COc1ccc(F)cc1C(C(=O)O)N1CCSCC1 (stereo not given) 4.05
